tested on: U251 CNS; assay: NCI-60 one-dose screen, 48 h (100 = growth as untreated, 0 = no growth, -100 = all killed); conditions: 10 µM unless noted
This is part of a sample that, as a whole, favours compounds with a hit. Of some 83,000 tested, about 20% had one in any assay.
Lab note: compare growth with 50%, writing y if less and n if equal or more.

Example entries begin here.
{"COMPOUND": "Nc1c2c(nc3ccc(Cl)cc13)CC(c1ccc(O)cc1)CC2=O (stereo unspecified)", "TARGET DESC": "U251 CNS", "GROUP": "y"}
{"COMPOUND": "CCOC(=O)c1ccc2c(c1)[n+](=O)c(C(=O)C1CCCS1)c(C(F)(F)F)n2[O-] (stereo unspecified)", "TARGET DESC": "U251 CNS", "GROUP": "y"}
{"COMPOUND": "Cc1cc(C=O)c(C)c2c1[nH]c1ccccc12", "TARGET DESC": "U251 CNS", "GROUP": "n"}
{"COMPOUND": "COc1cc(/C=C/c2cc(/C=C/c3ccc(O)c(OC)c3)n(-c3ccccc3)c(=O)n2)ccc1O", "TARGET DESC": "U251 CNS", "GROUP": "n"}
{"COMPOUND": "O=[N+]([O-])c1ccc(/C=N\\Nc2ccccc2)cc1", "TARGET DESC": "U251 CNS", "GROUP": "n"}

Here's the next entry for you.
I wonder whether "Cn1c2ccccc2c2c3c(c4c5cccnc5[nH]c4c21)C(=O)N(O)C3=O" has growth below 50%. Can you tell?
y

====

tested on: NCI/ADR-RES ovarian; assay: NCI-60 one-dose screen, 48 h; conditions: 10 µM unless noted
The panel holds about 83,000 compounds, 20% with a hit somewhere; the sample as a whole holds those more often. Calls of active or inactive are those of the source. The calls were made as follows: active = growth percent below 10; inactive = the rest.
Parameter call: string, one of label 1 for active, label 0 for inactive

Solved entries:
{"COMPOUND": "Cn1c(/C(C#N)=C/c2ccc3ccccc3c2)cc2ccccc21", "GROUP": "label 1"}
{"COMPOUND": "N#CCCCCCn1c2ccccc2c2c3c(c4c5ccccc5n(CCCCCC#N)c4c21)C(=O)N(O)C3=O", "GROUP": "label 0"}
{"COMPOUND": "COc1ccc(NC(=O)c2ccc3c(c2)nc(-c2cc4ccccc4[nH]c2=O)n3-c2cc(C(C)(C)C)[nH]n2)cc1", "GROUP": "label 0"}

Which outcome was entered for the compound COC(=O)[C@]12CC[C@@H](C)[C@H](C)[C@@H]1C1=CC[C@@H]3[C@@]4(C)C[C@@H](O)OC[C@](C)(C=O)C4C(=O)C[C@@]3(C)[C@]1(C)CC2 (stereo not given in full) in this test?
label 0

Also, "C=C(C)[C@@H]1CC[C@]2(C)[C@H](CC=C3[C@@H]4CC(C)(C)CC[C@]4(C=O)CC[C@]32C)[C@@]1(C)CCCN" please.
label 0

Subsequent entry: "CC(C)=CCC[C@](C)(O)[C@H]1CC[C@]2(C)[C@@H]1CC[C@@H]1[C@@]3(C)C/C(=C/c4cccc([N+](=O)[O-])c4)C(=O)C(C)(C)[C@@H]3CC[C@]12C"
label 0

====

system: MALME-3M melanoma; assay: NCI-60 one-dose screen, 48 h (100 = growth as untreated, 0 = no growth, -100 = all killed); settings: 10 µM unless noted
This is part of a sample that, as a whole, favours compounds with a hit. Of some 83,000 tested, about 20% had one in any assay.
MEASURED ATTRIBUTE: growth (%)
// note: answer is a bare numeric in %

Solved cases (3 shown):
{"COMPOUND": "COc1ccc(NC(=O)c2ccoc2COc2ccccc2)cc1", "VALUE UNIT": "%", "RECORDED VALUE": 99.7}
{"COMPOUND": "CC(=O)OC[C@]12CC[C@@H](/C(C)=N/O)[C@@H]1[C@H]1CC[C@@H]3[C@@]4(C)CCCNC(C)(C)[C@@H]4CC[C@@]3(C)[C@]1(C)CC2", "VALUE UNIT": "%", "RECORDED VALUE": 89.2}
{"COMPOUND": "Cc1ccc(S(=O)(=O)Nc2ccc(-c3cc(-c4cccc(F)c4)c(C#N)c(N)n3)cc2)cc1", "VALUE UNIT": "%", "RECORDED VALUE": 44.4}

Then there is this compound:
Quick one: growth for COc1cccc2c1C(=O)c1c(O)c3c(c(O)c1C2=O)C[C@@](O)(C(=O)CO)C[C@@H]3OC1C[C@H](N)[C@H](O)[C@H](C)O1 (some centres undefined) ?
-57.6

====

tested on: RXF 393 renal; experiment: NCI-60 one-dose screen, 48 h; conditions: 10 µM unless noted
Compounds without any hit were thinned out: in the full panel of roughly 83,000, 20% have a hit. Active and inactive are the calls of the source. Rule for the calls: active = growth percent below 10; inactive = the rest.
Field 'call' accepts active, inactive

Some solved entries appear below for comparison.
{"STRUCTURE AS SMILES": "C=C(C)[C@@H]1CC[C@]2(C)[C@H](CC[C@@H]3[C@H]4[C@H]5OC[C@@]4(CCC5(C)C)CC[C@]32C)[C@@]1(C)CCCN", "GROUP": "inactive"}
{"STRUCTURE AS SMILES": "CC1(C)CC[C@]2(CO)CC[C@]3(C)C(=CC[C@@H]4[C@@]5(C)CC[C@H](NCO)C(C)(C)[C@@H]5CC[C@]43C)[C@@H]2C1", "GROUP": "active"}

Entry "Cc1cc(Cl)nc(N(CCNc2ccnc3cc(Cl)ccc23)Cc2ccco2)n1" : call = ?
active

Can you handle "COc1ccccc1CNc1nc(N)nc2[nH]c3ccc(O)cc3c12" next?
inactive

====

tested on: IGROV1 ovarian; assay: NCI-60 one-dose screen, 48 h (100 = growth as untreated, 0 = no growth, -100 = all killed); conditions: 10 µM unless noted
This is part of a sample that, as a whole, favours compounds with a hit. Of some 83,000 tested, about 20% had one in any assay.
The following compounds are listed with their measured growth values.
Just the number in %, nothing appended.

{"STRUCTURE AS SMILES": "CN(C)CCCCC(C(=O)CBr)(c1ccccc1)c1ccccc1", "TARGET DESC": "IGROV1 ovarian", "growth / %": 44.4}
{"STRUCTURE AS SMILES": "Cc1ccc(N(CC(=O)Nc2ccc(S(=O)(=O)NC3CCN(C)CC3)cc2)S(=O)(=O)c2ccc(Cl)cc2)cc1", "TARGET DESC": "IGROV1 ovarian", "growth / %": 85.7}

Could you share which growth value was measured for "S=c1[nH]nc2ccccn12" ?
115

Let us now turn to "O=C(NO)c1ccc(Cn2c(=O)n(-c3ccccc3)c(=O)c3ccccc32)cc1"
33.5

Also, "Cc1nnc2nc(N)[nH]n2c1=O" please.
103

Now give it for "CCc1ccccc1NC(=O)c1sc2nc3c(cc2c1N)CCCC3" too.
64.8

====

system: SK-OV-3 ovarian; test: NCI-60 one-dose screen, 48 h; details: 10 µM unless noted
This is part of a sample that, as a whole, favours compounds with a hit. Of some 83,000 tested, about 20% had one in any assay. Calls of active or inactive are those of the source. How the source made its calls: active means growth percent below 10; inactive means the rest.
Pick from True (active), False (inactive) when you respond.

Sample answers from the record:
{"MOLECULE": "COc1cc2c(cc1-c1c(C)noc1C)ncc1nc(C3CCC(F)(F)CC3)n([C@@H](C)COC(F)F)c12", "GROUP": "True"}
{"MOLECULE": "C#Cc1cc2c(N)c(C(=O)c3cc(OC)c(OC)c(OC)c3)[nH]c2cc1OC", "GROUP": "False"}
{"MOLECULE": "Nc1nc2c(c(=O)[nH]1)C(c1ccc3c(c1)OCO3)C=C(C(=O)O)N2 (centres undefined)", "GROUP": "False"}
{"MOLECULE": "O=C1c2cccc3cccc(c23)C(=O)N1CC#Cc1ccc2c3c(cccc13)C(=O)N(CCN1CCNCC1)C2=O", "GROUP": "False"}

Lab note: next molecule to report on.
I'd appreciate the recorded outcome for "CNC(=O)c1cc(Oc2ccc3nc(NC(=O)Nc4ccc(Cl)cc4)sc3c2)ccn1" from this test.
False

====

test system: HOP-62 NSCLC; assay: NCI-60 one-dose screen, 48 h (100 = growth as untreated, 0 = no growth, -100 = all killed); details: 10 µM unless noted
Compounds without any hit were thinned out: in the full panel of roughly 83,000, 20% have a hit.
With a cut-off of 90%, any growth strictly below it is called 1; any growth meeting it or above is called 0.

Recorded results for 8 compounds are shown here.
{"COMPOUND": "O=C1Nc2ccccc2/C1=C/c1cn(CCCn2c3ccccc3c(=O)c3ccccc32)c2ccccc12", "GROUP": 1}
{"COMPOUND": "CN(C)CCCCC(C(=O)CBr)(c1ccccc1)c1ccccc1", "GROUP": 1}
{"COMPOUND": "N#CC1=C(N)Oc2ccc3ccccc3c2C1c1ccccc1 (stereo not given)", "GROUP": 1}
{"COMPOUND": "CN(CSc1ccc(Cl)cc1)c1ccc(CSc2ccc(Cl)cc2)cc1", "GROUP": 0}
{"COMPOUND": "Cc1cccc(C)c1NCc1nc(-c2ccccc2)n[nH]1", "GROUP": 0}
{"COMPOUND": "Cc1ccc(-c2nc([P+](c3ccccc3)(c3ccccc3)c3ccccc3)c(N3CCOCC3)o2)cc1", "GROUP": 1}
{"COMPOUND": "COc1cccc(-c2nn(-c3ccccc3)cc2-c2ccnc(NCCNS(=O)(=O)c3ccccc3)c2)c1", "GROUP": 1}
{"COMPOUND": "Cn1cnc2c1c(=O)n(CCC(=O)Nc1ccc(F)cc1)c(=O)n2C", "GROUP": 0}

Consider the record given below.
Is the reported growth for "O=C(N/N=C/c1ccccc1SSc1ccccc1/C=N/NC(=O)c1ccccc1)c1ccccc1" strictly below 90%?
1
